ASSAY_SYSTEM: cloned human MC4R (Homo sapiens)
Construct: made in house; host or cells: Hi5 insect cells (baculovirus infection); membrane preparation
Sequence (P32245 whole entry): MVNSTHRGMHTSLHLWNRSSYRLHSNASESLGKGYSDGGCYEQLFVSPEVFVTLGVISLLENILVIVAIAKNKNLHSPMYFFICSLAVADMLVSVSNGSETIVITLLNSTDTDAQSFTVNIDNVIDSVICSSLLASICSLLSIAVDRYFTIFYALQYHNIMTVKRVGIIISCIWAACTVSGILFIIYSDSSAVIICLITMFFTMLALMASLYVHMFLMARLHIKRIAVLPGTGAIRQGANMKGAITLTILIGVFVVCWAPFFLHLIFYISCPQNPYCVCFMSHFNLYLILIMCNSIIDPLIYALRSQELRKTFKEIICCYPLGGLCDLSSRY
PROTOCOL_DESCRIPTION: Membrane binding assay: competitive inhibition of [125I]NDP-α-MSH binding
EXPERIMENTAL_CONTEXT: read-out: MC4R IC50
pIC50: −log10 of the molar value.
MEASURED_ATTRIBUTE: pIC50

N[C@@H](Cc1ccc(OCc2ccccc2)cc1)C(=O)N1CCN(Cc2cccc(Oc3cc(Cl)cc(Cl)c3)c2)CC1 [Example 86]
> 5.82
N[C@@H](Cc1ccc(Oc2ccc(Cl)c(Cl)c2)cc1)C(=O)N1CCN(Cc2cccc(Cl)c2Cl)CC1 [Example 346]
5.52 to 5.82

What does the record list as pIC50 for N[C@@H](Cc1ccc(OCc2ccccc2)cc1)C(=O)N1CCCN(CC(c2ccccc2)c2ccccc2)CC1 [Example 23] ?
< 5.52

What does the record list as pIC50 for N[C@@H](Cc1ccc(OCCc2cccc(Cl)c2)cc1)C(=O)N1CCN(Cc2cccc(Cl)c2Cl)CC1 [Example 249] ?
> 5.82

What does the record list as pIC50 for COc1cc(CN2CCN(C(=O)[C@@H](N)Cc3ccc(OCc4ccccc4)cc3)CC2)cc(Br)c1OC [Example 121] ?
5.52 to 5.82

What does the record list as pIC50 for N[C@@H](Cc1ccc(OCc2ccccc2)cc1)C(=O)N1CCCN(Cc2ccccc2C(F)(F)F)CC1 [Example 22] ?
< 5.52

Numbers sourced from patent US6916812B2.
